Biological target: mouse ADAMTS7 (Mus musculus, UniProt Q68SA9)
Construct: Full-length mouse Adamts7 1-1857 (Uniprot Q68SA9, WT or E373Q catalytic mutant); expressed in transfected cells; host or cells: Human Coronary Artery Smooth Muscle Cells (HCA-SMC, Lonza), adenovirus 50 MOI
Sequence (Q68SA9 221-1657): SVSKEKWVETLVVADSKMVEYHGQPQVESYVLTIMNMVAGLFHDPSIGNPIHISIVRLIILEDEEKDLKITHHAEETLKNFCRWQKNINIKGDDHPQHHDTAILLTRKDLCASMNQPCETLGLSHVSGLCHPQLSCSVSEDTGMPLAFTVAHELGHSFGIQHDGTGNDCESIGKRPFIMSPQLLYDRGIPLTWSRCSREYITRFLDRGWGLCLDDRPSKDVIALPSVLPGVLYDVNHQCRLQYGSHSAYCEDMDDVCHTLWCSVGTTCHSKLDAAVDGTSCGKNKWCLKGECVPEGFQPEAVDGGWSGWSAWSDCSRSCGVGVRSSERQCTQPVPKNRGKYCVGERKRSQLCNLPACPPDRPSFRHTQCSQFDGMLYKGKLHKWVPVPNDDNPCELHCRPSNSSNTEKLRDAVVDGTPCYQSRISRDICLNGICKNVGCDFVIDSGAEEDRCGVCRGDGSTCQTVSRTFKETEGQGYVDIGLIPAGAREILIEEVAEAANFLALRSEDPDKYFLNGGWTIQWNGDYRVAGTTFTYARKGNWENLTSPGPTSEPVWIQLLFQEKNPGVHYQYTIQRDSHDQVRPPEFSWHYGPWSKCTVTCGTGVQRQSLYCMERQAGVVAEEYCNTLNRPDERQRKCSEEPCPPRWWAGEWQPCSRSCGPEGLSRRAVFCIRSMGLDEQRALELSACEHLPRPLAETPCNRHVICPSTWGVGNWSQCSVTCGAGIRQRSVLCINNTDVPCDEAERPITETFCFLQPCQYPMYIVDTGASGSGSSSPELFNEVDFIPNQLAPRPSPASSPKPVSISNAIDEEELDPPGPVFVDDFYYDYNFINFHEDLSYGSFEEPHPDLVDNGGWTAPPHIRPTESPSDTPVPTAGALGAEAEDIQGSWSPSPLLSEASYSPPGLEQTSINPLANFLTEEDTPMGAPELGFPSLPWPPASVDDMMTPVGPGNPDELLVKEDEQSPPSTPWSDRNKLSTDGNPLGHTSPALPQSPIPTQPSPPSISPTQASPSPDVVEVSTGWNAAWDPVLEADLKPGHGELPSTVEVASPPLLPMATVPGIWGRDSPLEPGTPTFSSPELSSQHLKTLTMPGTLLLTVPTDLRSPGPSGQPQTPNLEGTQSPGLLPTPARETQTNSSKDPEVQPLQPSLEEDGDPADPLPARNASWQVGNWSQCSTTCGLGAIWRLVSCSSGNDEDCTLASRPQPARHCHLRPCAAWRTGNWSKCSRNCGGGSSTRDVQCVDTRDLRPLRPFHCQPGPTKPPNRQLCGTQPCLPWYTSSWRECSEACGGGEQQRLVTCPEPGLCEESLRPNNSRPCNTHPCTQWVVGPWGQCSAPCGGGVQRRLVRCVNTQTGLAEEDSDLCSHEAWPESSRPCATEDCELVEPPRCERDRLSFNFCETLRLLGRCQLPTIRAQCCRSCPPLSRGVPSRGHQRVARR
Assay: TMT10 TAILS N-terminomics, SMC2 experiment (process replicates, trypsin/AspN digest)
Type: cell-based
Conditions: SMC2_TAILS HC; log fold change, mWT over Luc
measuredMetric: logFC.mWT.over.Luc

ACTG1_105 (LTEAPLNPKANR; listed as Homo sapiens) :: 1.80
FN1_1780 (LQGLRPGSEYTVSVVALH; listed as Homo sapiens) :: 1.67
IGFBP3_32 (AGLGPVVR; listed as Homo sapiens) :: 4.68
FN1_1143 (LTPGVEYVYTIQVLR; listed as Homo sapiens) :: 2.31
ECM1_108 (QEAVPLQK; listed as Homo sapiens) :: 3.12
FN1_1805 (LIGTQSTAIPAPT; listed as Homo sapiens) :: 2.43
LOXL1_157 (SVSASAFASTYR; listed as Homo sapiens) :: 2.71
KCND1_436 (RLAKSGTTNAFLQYKQNGGLE; listed as Homo sapiens) :: 1.60
HSPG2_2331 (ANLAYPAGSTQPIR; listed as Homo sapiens) :: 1.72
CTSB_109 (WAFGAVEAIS; listed as Homo sapiens) :: 1.65

Query: Look up logFC.mWT.over.Luc: COL18A1_1505 (LQPPVVQLHDSNPYPR; listed as Homo sapiens)
Response: 1.46

Query: Look up logFC.mWT.over.Luc: EFEMP1_125 (VAGPEMQTGR; listed as Homo sapiens)
Response: 1.43
